molecular target: T1, recombinant human DLL4 (human, UniProt Q9NR61 25-522); test: binding ELISA, coated rhDLL4
T1 construct: also called rhDLL4; hDLL4
T1 sequence (Q9NR61 25-522): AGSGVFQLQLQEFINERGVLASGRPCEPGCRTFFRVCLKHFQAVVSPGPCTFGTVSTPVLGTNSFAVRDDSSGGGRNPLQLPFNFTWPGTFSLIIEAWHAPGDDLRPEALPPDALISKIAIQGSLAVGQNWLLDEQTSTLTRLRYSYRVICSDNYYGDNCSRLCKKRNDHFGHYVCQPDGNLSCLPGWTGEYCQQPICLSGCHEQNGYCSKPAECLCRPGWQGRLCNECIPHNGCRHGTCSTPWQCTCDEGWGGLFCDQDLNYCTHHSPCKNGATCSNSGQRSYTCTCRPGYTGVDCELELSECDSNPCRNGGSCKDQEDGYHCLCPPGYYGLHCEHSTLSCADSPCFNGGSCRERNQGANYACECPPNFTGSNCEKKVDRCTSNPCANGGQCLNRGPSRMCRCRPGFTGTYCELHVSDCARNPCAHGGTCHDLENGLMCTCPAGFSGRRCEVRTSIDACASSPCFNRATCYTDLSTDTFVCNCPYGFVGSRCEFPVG
measure_name: pEC50
Keep it numeric: pEC50 is minus log10 of the concentration in mol/L.

response.value for DLLBII57C11 (VHH) VHH: EVQLVESGGGLVQPGGSLRLSCTASGFTFDDYAIGWFRQAPGKEPEGISCISSSGSITYDADSVKGRFTISRDNAKNTVYLQMNSLKPEDTAVYYCATPGIAACRGIHYWGQGTQVTVSS (field: pEC50) = 8.10

pEC50 reading for DLLBII17F10 (VHH) VHH: EVQLVESGGGLVQAGGSLRLSCASSGRTLLNYAMGWFRQAPGKEREFVSGINWSGGSTYYADSVKGRFTISRDNAENTVYLHMNSLKPEDTAVYYCAAAHDNYWFTDDSLGRGLKYWGQGTQVTVSS : 9.05

Record DLLBII55D12 (VHH) VHH: EVQLVESGGGLVQPGGSLRLSCAASGFTFDDYAIGWFRQAPGKEPEGISCISSSGGITYYADSVKGRFTISRDNAKNTVYLQMNSLKPEDTAVYYCATPGIAACRGIHYTGQGTQVTVSS . Reported pEC50: 7.88

pEC50 for DLLBII07B05 (VHH, also called DLLBII7B05) VHH: EVQLVESGGGLVQAGGSLRLSCAASGFALDYYAVGWFRQAPGKEREGVSCISSRGGSTFYADSVKGRFTTSRNNAKNTVYLQMNSLKPEDTAVYYCAAHPLQNCCGGSAYASPEAVYEYWGQGTQVTVSS is 8.14
